# credit: patent US11596639B2

target.desc: Mcl-1 (Homo sapiens (Human))
Sequence (Q07820 172-327): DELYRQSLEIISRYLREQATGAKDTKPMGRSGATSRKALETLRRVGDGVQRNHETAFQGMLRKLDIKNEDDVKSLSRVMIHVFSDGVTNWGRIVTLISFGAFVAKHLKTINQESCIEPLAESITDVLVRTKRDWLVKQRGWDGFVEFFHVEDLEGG
test.details: Fluorescence polarization anisotropy (FPA) competition assay, FITC-Bak or FITC-Bim BH3 peptide
Type: binding
measurement.context: read-out: Ki for Inhibition of Mcl-1 by FPA assay

{"columns": ["compound", "Ki"],
 "data": [
  ["Cc1cc(OCCCc2c3n(c4c(-c5c(C)nn(C)c5C)c(Cl)ccc24)[C@H](C)CN(c2cc(C(=O)O)cc4[nH]ccc24)C3=O)cc(C)c1Cl [Example 100]", "< 1 nM"],
  ["Cc1cc(OCCCc2c3n(c4c(-c5c(C)ncnc5C)c(Cl)ccc24)CCCN(c2cccc4cc(C(=O)O)ccc24)C3=O)cc(C)c1Cl [Example 213]", "< 1 nM"],
  ["Cc1cc(OCCCc2c3n(c4c(-c5c(C)nn(C)c5C)c(Cl)ccc24)CCCN(c2cn(CCN4CCOCC4)c4cc(C(=O)O)ccc24)C3=O)cc(C)c1Cl [Example 89]", "< 1 nM"]
]}
